Assignment: determine reported TGI for the given molecules.
system: BT-549 breast; assay: NCI tumour cell line growth inhibition, 48 h

Reference set (3 entries):
INSERT INTO results (molecule, reported) VALUES
  ('C[CH2][Sn]([CH2]C)([O]C(=O)c1cccc(OC)c1)[O][Sn]([CH2]C)([CH2]C)[O]C(=O)c1cccc(OC)c1', '29.4 µM'),
  ('Cc1c(S(=O)(=O)/N=C(\NN)Nc2ccc(Cl)cc2)sc2ccc(Cl)cc12', '30.9 µM'),
  ('COc1cc(/C=C/C(=O)Nc2ccc3c(c2)/C(=C\c2cccn2C)C(=O)N3)cc(OC)c1OC', '24.9 µM');

Below are some molecules; for each one, tell me its TGI.
1. CCCC(=O)N(C(=O)CCC)C1=C(Cl)C(=O)c2ccccc2C1=O
2. C[n+]1c2ccccc2n2c3ccccc3c(NCCCN3CCOCC3)c(C#N)c21
3. CN1CCCC1c1cccnc1.O=C(O)c1ccccc1O.O=C([O-])c1ccccc1[OH2+].O=C([O-])c1ccccc1[OH2+].O=C([O-])c1ccccc1[OH2+].[Cu+2] (stereo not drawn)
4. C=C1C(=O)O[C@H]2[C@H]1CC/C(CNC(=O)c1cccc3ccccc13)=C\CC[C@@]1(C)O[C@@H]21
5. Brc1ccc(SCN(CSc2ccc(Br)cc2)Cc2ccccc2)cc1

Result:
1: 10.3 µM; 2: > 100 µM; 3: > 100 µM; 4: 3.87 µM; 5: 3.9 µM
